- experimental system: human ether-à-go-go-related gene (hERG) potassium channel (human)
- test description: primary screen, population patch clamp on CHO cells stably expressing hERG; higher = less effect of the substance
In all, about 310,000 compounds went through this assay and about 14,000 (4.5%) showed an effect of 50% or more. The effect is printed as a negative number. Shown is part of a subset that was picked to be rich in strong results.
recorded metric: hERG current change (%, negative = inhibition) at 10uM (%)
Give bare numbers, in %.

Solved cases below.
{"compound": "Cc1ccc(C(=O)C2CCN(CC(=O)N3CCN(c4ccc(F)cc4)CC3)CC2)cc1", "unit annotation": "%", "observed measurement": -73.7}
{"compound": "Cc1cc2c(c(=O)n1CCN(C)C)C(c1ccccc1Br)C(C#N)=C(N)O2 (centres unmarked)", "unit annotation": "%", "observed measurement": -26.1}
{"compound": "CC(=O)Nc1ccc(S(=O)(=O)N2CCN(C(=O)Cc3ccccc3)CC2)cc1", "unit annotation": "%", "observed measurement": -1.44}

// input: 7 compounds below; output: hERG current change (%, negative = inhibition) at 10uM for each
1. Cc1ccc(C(=O)C2CCN(CC(=O)NCc3ccc(F)cc3)CC2)cc1
2. Cc1cc(CN(C)C(=O)C2CCC(=O)N(CCc3cccc(F)c3)C2)on1 (centres unmarked)
3. COc1ccccc1NC(=O)CN1CCC(C(=O)c2ccc(F)cc2)CC1
4. Cc1nc(CN(C)C(=O)C2CCC(=O)N(CCc3cccc(F)c3)C2)cs1 (centres unmarked)
5. O=C(CNC(=O)c1ccc(Br)o1)NCc1ccccc1Cl
6. CC1C(=O)NN=C1C(=O)N/N=C/c1cccs1 (centres unmarked)
7. Cc1ccc(C(=O)NCN2CCN(c3ccc(F)cc3)CC2)cc1

[-53.3, 9.94, -38.5, -7.62, 1.15, 17.3, -28.9]

// input: 3 compounds below; output: hERG current change (%, negative = inhibition) at 10uM for each
1. O=C(Cn1cnc2c(nnn2Cc2ccccc2F)c1=O)NCC1CCCO1 (centres unmarked)
2. COc1ccc(CNC(=O)OCCN2CCN(S(=O)(=O)c3ccc(C)cc3)CCC2=O)cc1
3. CCCCn1c(SCC(=O)NCc2ccccc2)nc2ccc(N3CCOCC3)cc2c1=O

[-3.88, -35.9, -13.9]

// input: 4 compounds below; output: hERG current change (%, negative = inhibition) at 10uM for each
1. CN(Cc1ccccn1)C(=O)C1CCC(=O)N(Cc2cccc(F)c2)C1 (centres unmarked)
2. COc1cccc(Cn2c(Oc3cccc(C)c3)nc3c2c(=O)n(C)c(=O)n3C)c1
3. Cn1c(=S)c2[nH]c(SCCN3CCCC3)nc2n(C)c1=O
4. CN1CCN(C(=O)C2CCC(=O)N(CCc3cccc(F)c3)C2)CC1 (centres unmarked)

1. 6.47
2. -9.7
3. 10.5
4. 12.3

----------
- experimental system: human ether-à-go-go-related gene (hERG) potassium channel (human, UniProt Q12809);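 also: peak tail current of the secondary pulse compared with the same well before compound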
- Sequence (Q12809 whole entry, looked up): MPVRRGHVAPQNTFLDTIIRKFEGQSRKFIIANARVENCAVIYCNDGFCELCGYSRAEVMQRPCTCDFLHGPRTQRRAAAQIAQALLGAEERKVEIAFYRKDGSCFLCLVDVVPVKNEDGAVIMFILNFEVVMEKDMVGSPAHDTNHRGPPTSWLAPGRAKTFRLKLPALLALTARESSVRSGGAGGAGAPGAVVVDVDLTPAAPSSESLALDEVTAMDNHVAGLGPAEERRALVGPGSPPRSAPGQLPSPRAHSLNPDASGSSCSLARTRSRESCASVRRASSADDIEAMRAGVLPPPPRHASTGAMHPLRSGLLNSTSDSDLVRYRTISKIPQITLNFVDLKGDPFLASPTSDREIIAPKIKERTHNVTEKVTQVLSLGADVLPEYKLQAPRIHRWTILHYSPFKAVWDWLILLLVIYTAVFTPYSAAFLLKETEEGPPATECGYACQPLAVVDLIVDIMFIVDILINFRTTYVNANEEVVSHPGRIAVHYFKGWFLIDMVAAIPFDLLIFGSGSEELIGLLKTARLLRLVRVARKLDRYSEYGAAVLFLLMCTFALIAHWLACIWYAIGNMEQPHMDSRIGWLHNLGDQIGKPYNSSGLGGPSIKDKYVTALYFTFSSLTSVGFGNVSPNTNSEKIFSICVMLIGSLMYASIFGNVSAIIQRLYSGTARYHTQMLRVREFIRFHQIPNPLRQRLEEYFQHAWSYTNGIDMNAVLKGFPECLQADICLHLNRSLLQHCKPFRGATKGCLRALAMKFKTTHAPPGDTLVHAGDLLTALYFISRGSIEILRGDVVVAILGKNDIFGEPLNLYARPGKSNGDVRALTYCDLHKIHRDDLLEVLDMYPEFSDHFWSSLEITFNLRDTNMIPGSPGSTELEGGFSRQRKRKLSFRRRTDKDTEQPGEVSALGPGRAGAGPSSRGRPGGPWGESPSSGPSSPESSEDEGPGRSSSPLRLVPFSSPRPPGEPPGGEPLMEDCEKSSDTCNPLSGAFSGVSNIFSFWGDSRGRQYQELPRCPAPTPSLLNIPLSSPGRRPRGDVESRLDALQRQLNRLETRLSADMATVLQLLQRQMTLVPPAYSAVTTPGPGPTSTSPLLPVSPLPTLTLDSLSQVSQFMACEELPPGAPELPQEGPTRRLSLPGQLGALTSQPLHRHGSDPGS
- test description: primary screen, population patch clamp on CHO cells stably expressing hERG; higher = less effect of the substance
Out of some 310,000 compounds screened, about 14,000 (4.5%) showed an effect of 50% or more. Effects have a minus sign here. Only a selection was taken, and strong results are over-represented in it overall.
So I've got a bunch of compounds here, and I need their hERG current change (%, negative = inhibition) at 10uM values.
Answers are plain numbers, in %.

{"compound": "O=C(CN1CCCCC1)Nc1cc(Cl)ccc1Cl", "experimental system": "human ether-à-go-go-related gene (hERG) potassium channel (human, UniProt Q12809)", "observed measurement": -0.685}
{"compound": "COc1ncnc2c1sc1nc(-c3ccccc3)c3c(c12)CCCC3", "experimental system": "human ether-à-go-go-related gene (hERG) potassium channel (human, UniProt Q12809)", "observed measurement": 15.6}
{"compound": "O=C(CNC(=S)N(CCCN1CCOCC1)Cc1cccs1)NC1CCCCC1", "experimental system": "human ether-à-go-go-related gene (hERG) potassium channel (human, UniProt Q12809)", "observed measurement": -31.2}
{"compound": "CC(C)c1ccc(NC(=O)CSc2nc(=O)n(CCN3CCOCC3)c3c2CCC3)cc1", "experimental system": "human ether-à-go-go-related gene (hERG) potassium channel (human, UniProt Q12809)", "observed measurement": -41.5}
{"compound": "NC(=O)C1(N2CCCCC2)CCN(Cc2ccc(F)cc2)CC1", "experimental system": "human ether-à-go-go-related gene (hERG) potassium channel (human, UniProt Q12809)", "observed measurement": -6.92}
{"compound": "Cc1ccc(NC(=O)CSc2nc(=O)n(CCCN3CCOCC3)c3c2CCCC3)c(C)c1", "experimental system": "human ether-à-go-go-related gene (hERG) potassium channel (human, UniProt Q12809)", "observed measurement": -36.7}
{"compound": "CN1CCN(S(=O)(=O)c2ccc3c(c2)OCCO3)CC1", "experimental system": "human ether-à-go-go-related gene (hERG) potassium channel (human, UniProt Q12809)", "observed measurement": 12.1}
{"compound": "Cc1cc(N)c2ccccc2n1", "experimental system": "human ether-à-go-go-related gene (hERG) potassium channel (human, UniProt Q12809)", "observed measurement": 7.4}

// input: 8 compounds below; output: hERG current change (%, negative = inhibition) at 10uM for each
1. CN(C)CCNC(=O)CNC(=S)N(CCCN1CCOCC1)Cc1cccs1
2. COc1ccc(NC(=O)CN2CCC(C(N)=O)(N3CCCCC3)CC2)c(OC)c1
3. NC(=O)C1CCN(CC(O)CSc2ccccc2)CC1 (centres unmarked)
4. NC(=O)C1(N2CCCCC2)CCN(Cc2ccccc2)CC1
5. C=CCn1c(O)c(N=NC(=O)c2cccnc2)c2cc(Br)ccc21
6. Cl.O=C(CN1CCCCCC1)Nc1ccc(Oc2ccccc2)cc1
7. Cc1cccc(NC(=O)CSc2nc(=O)n(CCCN3CCOCC3)c3c2CCCC3)c1
8. O=C(CNC(=S)N(CCCN1CCOCC1)Cc1cccs1)NCCN1CCOCC1

[12.1, 1.56, -0.00192, 2.53, -16.1, -78.6, -42.4, 9.17]

----------
- experimental system: human ether-à-go-go-related gene (hERG) potassium channel (human, UniProt Q12809);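 also: peak tail current of the secondary pulse compared with the same well before compound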
- test description: primary screen, population patch clamp on CHO cells stably expressing hERG; higher = less effect of the substance
The whole screen tested about 310,000 compounds, of which about 14,000 (4.5%) showed an effect of 50% or more. The effect is printed as a negative number. The list comes from a sample in which strong results are over-represented; it also holds close analogues and randomly drawn compounds.
So I've got a bunch of compounds here, and I need their hERG current change (%, negative = inhibition) at 10uM values.
// unit must come after the numeric part

Solved cases below.
{"structure as smiles": "CCOC(=O)c1ccc(S(=O)(=O)NNC(=O)COc2ccccc2C)cc1", "observed measurement": "27.5%"}
{"structure as smiles": "CC(C)=C(NC(=O)c1ccco1)C(=O)NCCc1nc2ccccc2[nH]1", "observed measurement": "1.12%"}

Now let's try a different one.
So what does the record say about hERG current change (%, negative = inhibition) at 10uM for COc1ccc(/C=C(\NC(=O)c2ccco2)C(=O)NCCc2nc3ccccc3[nH]2)cc1 ?
-42.6%

----------
- experimental system: human ether-à-go-go-related gene (hERG) potassium channel (human);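 also: peak tail current of the secondary pulse compared with the same well before compound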
- test description: primary screen, population patch clamp on CHO cells stably expressing hERG; higher = less effect of the substance
Screen size: about 310,000 compounds; about 14,000 (4.5%) showed an effect of 50% or more. The effect is printed as a negative number. This excerpt belongs to a sample that is enriched for strong results.
recorded metric: hERG current change (%, negative = inhibition) at 10uM (%)
Numbers only, in %.

{"compound": "CC(NC(=O)c1ccco1)c1ccc(-n2ccnc2)cc1 (centres unmarked)", "unit annotation": "%", "observed measurement": -37}
{"compound": "CC(C)CCn1nnnc1C(c1ccc(F)cc1)N1CCN(C(=O)c2ccco2)CC1 (centres unmarked)", "unit annotation": "%", "observed measurement": -38.1}
{"compound": "CCOc1cc(/C=C(\\C#N)C(=O)NCc2cccnc2)ccc1O", "unit annotation": "%", "observed measurement": -8.66}
{"compound": "O=C(c1ccco1)N1CCN(C(c2ccc(F)cc2)c2nnnn2CC2CCCO2)CC1 (centres unmarked)", "unit annotation": "%", "observed measurement": -13.7}

Now let's try a different one.
Fill in the recorded hERG current change (%, negative = inhibition) at 10uM for this compound, with human ether-à-go-go-related gene (hERG) potassium channel (human) as test system: COc1ccccc1NC(=O)C(C)OC(=O)c1cccc(-n2cnnn2)c1 (centres unmarked)
-35.2

----------
- experimental system: human ether-à-go-go-related gene (hERG) potassium channel (human);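 also: peak tail current of the secondary pulse compared with the same well before compound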
- test description: primary screen, population patch clamp on CHO cells stably expressing hERG; higher = less effect of the substance
- Procedure: Briefly, Chinese hamster ovary (CHO) cells stably expressing the hERG channel were dislodged from tissue culture flasks and dispensed into PPC plates. […] During the recording, background leak currents were estimated by a 100 ms step to -80 mV from an initial holding potential of -70 mV and subtracted from the subsequent current measurement. The campaign was conducted in two phases using slight differences in recording protocol. […]
Among all 310,000 compounds or so, about 14,000 (4.5%) showed an effect of 50% or more. Effects have a minus sign here. Many of the other results were omitted from the sample, so strong results are more common in it than they were.
recorded metric: hERG current change (%, negative = inhibition) at 10uM (%)
Answers are plain numbers, in %.

// input: 4 compounds below; output: hERG current change (%, negative = inhibition) at 10uM for each
1. COc1cccc(-c2nnc(SCC(=O)Nc3ccc4c(c3)OCCO4)n2Cc2ccco2)c1
2. CCCCN(CC)CCCNC(=S)Nc1ccc2nc(N3CCN(C)CC3)cc(C)c2c1
3. Cc1ccc(NC(=O)N2CCC(C(=O)c3ccc(F)cc3)CC2)cc1
4. Cc1cc(C)cc(NC(=O)N2CCC(NC(=O)c3ccc(F)cc3)CC2)c1

[-15.1, 5.19, -3.84, -35.5]

Where these numbers come from: paper PMC4336329
